Target: UniProt:P48048
Sequence (P48048 whole entry): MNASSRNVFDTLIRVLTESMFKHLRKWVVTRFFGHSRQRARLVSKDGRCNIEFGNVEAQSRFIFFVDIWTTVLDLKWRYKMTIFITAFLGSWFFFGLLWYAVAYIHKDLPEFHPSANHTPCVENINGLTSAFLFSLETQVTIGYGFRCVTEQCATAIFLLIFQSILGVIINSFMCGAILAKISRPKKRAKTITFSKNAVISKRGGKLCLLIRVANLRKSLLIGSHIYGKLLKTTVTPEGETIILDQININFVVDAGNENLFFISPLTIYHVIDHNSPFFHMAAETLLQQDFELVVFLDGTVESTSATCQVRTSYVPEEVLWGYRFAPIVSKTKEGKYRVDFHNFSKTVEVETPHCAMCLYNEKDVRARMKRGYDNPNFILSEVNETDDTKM
Experiment: Thallium Flux Assay (ROMK channel functional thallium flux, FLIPR-Tetra)
Settings: HEK293 cells stably expressing hROMK (hKir1.1); 30 min compound incubation
pIC50: −log10 of the molar value.
MEASURE: pIC50

compound="O=C1C=C(N2C=CC3(CCN(C[C@H](O)c4ccc(-n5cnnn5)nc4)CC3)C2=O)CO1 [Example 151]" numeric_result=7.52

a: COc1cc(-n2cnnn2)ccc1[C@H](O)CN1CCC2(CC1)CCN(C1=CC(=O)OC1)C2=O [Example 16]
b: Cc1nc(-n2cnnn2)cnc1C(O)CN1CCC2(CC1)C[C@H](C)N(C1=CC(=O)OC1)C2=O (mixture of isomers) [Example 169]
Hi there! Just curious which has the higher pIC50 between a and b . Selection: enter the item's label.
b
(b: 8.00, a: 7.70)
